# Tgt: ETA (Oryctolagus cuniculus, UniProt A5A8K3)
# Sequence (A5A8K3 21-427): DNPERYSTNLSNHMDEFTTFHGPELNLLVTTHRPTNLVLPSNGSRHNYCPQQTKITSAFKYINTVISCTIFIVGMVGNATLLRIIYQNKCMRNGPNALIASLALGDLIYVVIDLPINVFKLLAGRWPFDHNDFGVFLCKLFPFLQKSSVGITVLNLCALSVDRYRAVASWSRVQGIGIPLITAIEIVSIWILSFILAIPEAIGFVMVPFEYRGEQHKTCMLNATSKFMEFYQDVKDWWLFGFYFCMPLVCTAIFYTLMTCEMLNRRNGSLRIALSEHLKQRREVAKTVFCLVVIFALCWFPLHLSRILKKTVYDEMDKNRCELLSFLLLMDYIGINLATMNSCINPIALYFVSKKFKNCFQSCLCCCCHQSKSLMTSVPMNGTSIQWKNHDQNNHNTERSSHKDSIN
# Stated Conditions: ERBA-A IC50, [125I]-ET-1, rabbit renal artery vascular smooth muscle cells
Readout: log10 of IC50 (log10 of the value in nM)
Note: values are log10 of IC50 expressed in nM.

Molecule | log10 of IC50
COc1ccc(C2(O)OC(=O)C(c3ccc4c(c3)OCO4)=C2Cc2ccc(OC)c(C)c2C)cc1 (stereo not drawn) | 1.23

Each molecule below has a reported value. Please supply its log10 of IC50.
1. C=CCOc1cc(OC)ccc1C1(O)OC(=O)C(c2ccc3c(c2)OCO3)=C1Cc1ccccc1 (stereo not drawn)
2. COc1ccc(C2=C(Cc3ccc4c(c3)OCO4)C(O)(c3ccc(Cl)cc3)OC2=O)cc1OC (racemic)
3. COc1ccc(C2(O)OC(=O)C(c3ccc4c(c3)OCO4)=C2CC2CCCC(C(=O)O)C2)cc1 (stereo not drawn)
4. COc1ccc(C(=O)/C(Cc2cc(OC)c(OC)c(OC)c2)=C(\C(=O)O)c2cc(OC)c3c(c2)OCO3)cc1
5. O=C(O)/C(=C(/Cc1ccccc1)C(=O)c1ccc(-n2ccnc2)cc1)c1ccc2c(c1)OCO2
6. COc1ccc(C(=O)/C(Cc2ccc(OC(C)C)cc2)=C(\C(=O)O)c2ccc3c(c2)OCO3)cc1 [Example 352]
7. COc1ccc(C2(O)OC(=O)C(c3ccc4c(c3)OCO4)=C2Cc2ccc(OC(C)C)c(OC)c2)cc1C (stereo not drawn)
8. COc1ccc(C2(O)OC(=O)C(c3ccc4c(c3)OCO4)=C2CC(c2ccccc2)C2CCCC2)cc1 (stereo not drawn)

RESULT:
1: 2.04; 2: 3.97; 3: 2.40; 4: -0.41; 5: 3.85; 6: 0.70; 7: 0.26; 8: 0.75

Each molecule below has a reported value. Please supply its log10 of IC50.
1. COc1ccccc1C1(O)OC(=O)C(c2ccc3c(c2)OCO3)=C1Cc1ccccc1 (stereo not drawn)
2. O=C1OC(O)(c2c(F)cccc2F)C(Cc2ccccc2)=C1c1ccc2c(c1)OCO2 (stereo not drawn)
3. O=C1OC(O)(c2ccccc2)C(Cc2ccsc2)=C1c1ccc2c(c1)OCO2 (stereo not drawn)
4. COc1ccc(C2(O)OC(=O)C(c3ccc4c(c3)OCO4)=C2Cc2cccc(CC(=O)O)c2)cc1 (stereo not drawn)
5. COc1ccc(C2(O)OC(=O)C(c3ccc4c(c3)OCO4)=C2Cc2ccc(OC)c(Cl)c2)cc1 (stereo not drawn)
6. COc1ccc(C(=O)/C(Cc2cc(OC)c(OC)c(OC)c2)=C(\C(=O)O)c2ccc3c(c2)OCO3)cc1

RESULT:
1: 2.70; 2: 3.36; 3: 2.90; 4: 2.11; 5: 0.60; 6: -0.10

Values were extracted from patent US5691373A.
